Kindly supply the reported apparent KD of K4 kissing-loop reporter values for the records listed here.
system: K4 kissing-loop RNA reporter; assay: apparent KD of K4 kissing-loop reporter; higher = weaker reporter binding; conditions: Eterna round: R107; input ligand: none;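 also: bound reporter read as fluorescence of individual clusters on recovered sequencing chips by microscopy, with normalized cluster intensities fitted with a binding model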
Kindly provide the numeric value in nM only, without the unit symbol.

Query: apparent KD of K4 kissing-loop reporter of UAUGAAUGUGGAGGAUAUUGAUUGAAUCUUGGUCUGGAGUGAUGUUCCGGGAAGCCUUGGAUUCAUCGAGAAGGCCAUGGAUAGU [#03 K4 FMN B Same State] on K4 kissing-loop RNA reporter?
Response: 118

Query: apparent KD of K4 kissing-loop reporter of CAUACGCAUGGAGGAUAUGAGAUUUCUCAUAUUAUUUAAUAUUCUCAGUGAUGUUGAGAUUUAAACUCAGAAGGCCAUGUGUAUG [Ex FMN B 6] on K4 kissing-loop RNA reporter?
Response: 239

Query: apparent KD of K4 kissing-loop reporter of CAUACGCAUGGAGGAUAUGAGAUUACUCAUAUCAUUUAAUAUUCUCAGUGAUGUUGAGAUUUAGGCUCAGAAGGCCAUGUGUAUG [Ex FMN B 14] on K4 kissing-loop RNA reporter?
Response: 412

Query: apparent KD of K4 kissing-loop reporter of AAUGUACAAGUGAUGUUUGUACUUUCCGAAGGAGCGUCUAAUAAGACAGGUAGGUCGCGGAUUAUCAUAAUUAUCAGGUUUUCAA [JR_SSArginiA_Sub015] on K4 kissing-loop RNA reporter?
Response: 92.4

Query: apparent KD of K4 kissing-loop reporter of CUUUAUCAACCAGAUACCAGCGGUUCUCUAGUUGGCUUCCGUAGUGAUGUUGCGUGGUCCCGCCCUUGGCAGCUGGCCAUGACUA [theeternabot_sameState_KL_Theo_B_5] on K4 kissing-loop RNA reporter?
Response: 1170

Query: apparent KD of K4 kissing-loop reporter of UUGAGCCGGACUCAAGUCCGGCUCUGCGAGCGAGGACCGGUACGGCCGCCACUCGGUGCAGUGAUGUUGCAUGGCCGCAAGGCCG [#2 Exclusion - Tryptophan A Attempt #13 (HarryS)] on K4 kissing-loop RNA reporter?
Response: 482

Query: apparent KD of K4 kissing-loop reporter of UAUUGUACAGGGAAAUUGAUAAUAGACUUACGAGGACCGGUACGGCCGCCACUCGAUAGUCGAGUGAUGUUCGAAUGCUAUUGAU [Attempt 1] on K4 kissing-loop RNA reporter?
Response: 211

Query: apparent KD of K4 kissing-loop reporter of CCGAAGAACCAGUGAUGUUGGUUGACUAGACAGGAUAUGAGCAACAUCAGAAGGGUCUGGCUUCGGGAGUAGGUCGCGCUGACCC [Diarrebi] on K4 kissing-loop RNA reporter?
Response: 624

Query: apparent KD of K4 kissing-loop reporter of AAAGGAGUGGAAGGAUAUCCUGGUGUGGGUGGUGUUAGUGAUGUUGGUGGUGCAGUGAUGUUGCGCGGAGAAGGUCCGGUAUUGG [BDazzled - #2 - Exc. FMN B] on K4 kissing-loop RNA reporter?
Response: 437

Query: apparent KD of K4 kissing-loop reporter of GUAUGUGGAAACACGUACUUGUAUCCUAAGCAGGAUAUGCGGAAACGCAGAAGGGCUACCAGCGAGUUUAUCCAGUGAUGUUGGA [Ex FMN A 12] on K4 kissing-loop RNA reporter?
Response: 269

Query: apparent KD of K4 kissing-loop reporter of CAUGGGCCAGUGAUGUUGGCGCGCACGGGACGAGGACCGGUACGGCCGCCACUCGCUUUUGCUCUUAUCGGGAUAAGAAAACCGA [Enveerorle] on K4 kissing-loop RNA reporter?
Response: 567

Query: apparent KD of K4 kissing-loop reporter of UGUCAUUGGUCGGCCGCCACUAGGACCGGGACUUCUCUAGUGAUGUUAGUCUGGUCGGCCGCCACUAGGACCGGGACCGAUGACU [KL-SSTryp-B14 #DoubleAptamer] on K4 kissing-loop RNA reporter?
Response: 671
